Target under test: Substance-P receptor (Cavia porcellus) (UniProt P30547)
Sequence (P30547 whole entry): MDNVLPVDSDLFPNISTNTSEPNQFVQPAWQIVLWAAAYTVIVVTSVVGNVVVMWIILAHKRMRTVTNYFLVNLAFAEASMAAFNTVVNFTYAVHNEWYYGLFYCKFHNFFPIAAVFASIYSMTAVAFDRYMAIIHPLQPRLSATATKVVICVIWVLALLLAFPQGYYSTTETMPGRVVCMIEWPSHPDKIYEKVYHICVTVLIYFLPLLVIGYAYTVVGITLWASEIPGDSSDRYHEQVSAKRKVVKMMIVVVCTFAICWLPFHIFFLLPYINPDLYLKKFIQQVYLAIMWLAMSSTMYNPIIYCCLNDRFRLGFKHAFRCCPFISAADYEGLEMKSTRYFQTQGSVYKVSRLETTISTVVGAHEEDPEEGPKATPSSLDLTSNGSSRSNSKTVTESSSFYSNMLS
Test: Antagonist activity against tachykinin receptor 1 activity in guinea pig ileum in vitro
Type: functional, tissue-based
Would you mind labelling by Kb? At or over 30 nM is y, under is n.

- Smiles: "FC(F)(F)c1cc(COc2cccnc2-c2ccccc2)cc(C(F)(F)F)c1"
  Target under test: "Substance-P receptor (Cavia porcellus) (UniProt P30547)"
  Category label: "n"
- Smiles: "O=C1c2c(-c3ccccc3)cc(N3CCOCC3)nc2OCCCN1Cc1cc(C(F)(F)F)cc(C(F)(F)F)c1"
  Target under test: "Substance-P receptor (Cavia porcellus) (UniProt P30547)"
  Category label: "n"
- Smiles: "O=C1c2c(-c3ccccc3)cc(N3CCCCC3)nc2OCCCN1Cc1cc(C(F)(F)F)cc(C(F)(F)F)c1"
  Target under test: "Substance-P receptor (Cavia porcellus) (UniProt P30547)"
  Category label: "n"
- Smiles: "Cc1ccccc1-c1cc(N2CCC(N3CCCC3)CC2)nc2c1C(=O)N(Cc1cc(C(F)(F)F)cc(C(F)(F)F)c1)CCCO2"
  Target under test: "Substance-P receptor (Cavia porcellus) (UniProt P30547)"
  Category label: "n"
- Smiles: "CN(Cc1cc(C(F)(F)F)cc(C(F)(F)F)c1)C(=O)c1ccc(N2CCOCC2)nc1-c1ccccc1"
  Target under test: "Substance-P receptor (Cavia porcellus) (UniProt P30547)"
  Category label: "y"
- Smiles: "O=C1c2c(-c3ccccc3Cl)cc(N3CCC(N4CCCC4)CC3)nc2OCCCN1Cc1cc(C(F)(F)F)cc(C(F)(F)F)c1"
  Target under test: "Substance-P receptor (Cavia porcellus) (UniProt P30547)"
  Category label: "n"
- Smiles: "CN(Cc1cc(C(F)(F)F)cc(C(F)(F)F)c1)C(=O)c1cccnc1-c1ccccc1"
  Target under test: "Substance-P receptor (Cavia porcellus) (UniProt P30547)"
  Category label: "y"
- Smiles: "COc1cc(N2CCOCC2)nc(-c2ccccc2)c1C(=O)N(C)Cc1cc(C(F)(F)F)cc(C(F)(F)F)c1"
  Target under test: "Substance-P receptor (Cavia porcellus) (UniProt P30547)"
  Category label: "n"
- Smiles: "O=C1c2c(cc(N3CCOCC3)nc2-c2ccccc2)OCCCN1Cc1cc(C(F)(F)F)cc(C(F)(F)F)c1"
  Target under test: "Substance-P receptor (Cavia porcellus) (UniProt P30547)"
  Category label: "n"
